For each of the molecules below, state its composite z-score.
# System: Plasmodium falciparum Sir2 (PF13_0152, Sir2A)
# Measurement protocol: pfSir2 binders on small-molecule microarrays, primary screen, biochemical, small-molecule microarray, 635 nm fluorescence (AID 1098);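 note: score merges spot fluorescence intensity with its signal-to-noise ratio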
# Condition label: small-molecule microarray binding, fluorescence 635 nm; higher = more signal
Give your answer as a number; write no unit.

# composite z-score of O=C1O[C@H](c2ccccc2)[C@H](c2ccccc2)N2[C@H]1[C@@H](C(=O)NC[C@H](O)c1ccccc1)[C@]1(C(=O)Nc3ccccc31)[C@H]2c1ccc(OCCO)cc1 = 0.884

# composite z-score of CCOC(=O)C[C@H]1[C@H](OC(=O)c2cc3ccccc3oc2=O)[C@@H](NC(=O)Cc2ccc(OC)cc2)c2cc(OCCCO)ccc2N1C(=O)c1ccccc1 = 0.39

# composite z-score of CS(=O)(=O)CCOC(=O)C1=CC(CCCO)=CC(c2ccc(CN3CCCC3)cc2)N(Cc2cc3c(cc2Br)OCO3)C=C1C(=O)OCCS(C)(=O)=O (configuration not stated) = 1.52

# composite z-score of COc1ccc(CCNC(=O)[C@@H]2c3ccccc3C(=O)N(C3Cc4ccccc4C3)[C@H]2c2ccc(CO)cc2)cc1 = 0.613

# composite z-score of O=C1C2C=CC(C(O)C(c3ccccc3)c3ccccc3)N(n3cnnc3)C2C(=O)N1Cc1ccccc1 (configuration not stated) = 0.55

# composite z-score of COCCn1c(C(=O)N2CCCC2)cc2c1C[C@H]1CN(C(=O)c3ccccc3)[C@@](Cc3ccc(F)cc3)(C(=O)OC)[C@@H]21 = 1.17

# composite z-score of O=C1C2C=CC(C(O)c3ccc(F)cc3)N(Nc3ccccc3F)C2C(=O)N1c1ccccc1 (configuration not stated) = 1.47

----------
# Measurement protocol: yeast growth modulation, basal conditions, primary screen, YJM789 clinical isolate, OD600, 24 h (AID 1089);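 note: growth of clinical yeast isolate S. cerevisiae YJM 789 seeded 1000 cells per well; test concentration not given here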
# Condition label: S. cerevisiae YJM789 growth, higher = more signal, called active from +8 up or from −8 down
For each of the compounds below, state its z-score.
Give your answer as a number; write no unit.

# z-score of COC(=O)c1c(CC[C@@H](CO)NC(=O)N[C@H](Cn2cc(Cc3ccccc3)nn2)C(C)C)oc(C(C)=O)c1C(=O)OC = -0.178

# z-score of CCOC(=O)[C@H]1C/C=C/C[C@H](C(=O)OCC)C(=O)O[C@H]2[C@@H](OC)O[C@H](CO)[C@@H](OC(=O)Nc3cccc(F)c3)[C@@H]2OC1=O = 1.52

# z-score of COCCOC(=O)N1C(=O)[C@@]2(c3cc(C#CCNC(N)=O)ccc31)[C@H](C(=O)NC[C@H](O)c1ccccc1)[C@H]1C(=O)O[C@H](c3ccccc3)[C@H](c3ccccc3)N1[C@@H]2c1ccccc1OCCO = 1.56

# z-score of COc1ccc(C(O)C2C=CC3C(=O)N(C)C(=O)C3N2N2CCCCC2)c2ccccc12 (stereo not drawn) = -0.079

# z-score of CCCCc1cn(C[C@H](Cc2ccccc2)NC(=O)N[C@H](CO)CCc2oc(C(C)=O)c(C(=O)OC)c2C(=O)OC)nn1 = -0.425

# z-score of C=CCC(OC(C)=O)[C@@H]1[C@@H](N(Cc2cccc3ccccc23)C(=O)c2ccc(-c3ccccc3)cc2)c2cc(OCCCO)ccc2N1C(=O)Cc1ccc(OC)cc1 (stereo partly drawn) = -0.715

# z-score of [N-]=[N+]=NCc1ccccc1C[C@]1(C(=O)O)N=C(c2ccc(OCCCO)cc2)O[C@H]1c1ccccc1N=[N+]=[N-] = 0.869

# z-score of CC(C)c1ccc(NN2C(C(O)C(c3ccccc3)c3ccccc3)C=CC3C(=O)N(c4ccccc4)C(=O)C32)cc1 (stereo not drawn) = 0.709

# z-score of C=C(CCCC)C(=O)CC[C@@H](OC(=O)c1cccnc1)c1ccc(CO)o1 = 0.544

# z-score of COCCOC(=O)N1C(=O)[C@@]2(c3cc(C#Cc4ccc(OC)cc4)ccc31)[C@H](c1ccccc1OCCO)N1[C@H](c3ccccc3)[C@H](c3ccccc3)OC(=O)[C@H]1[C@@H]2C(=O)N1CCN(c2ncccn2)CC1 = 3.34

# z-score of CC(=O)N1Cc2ccccc2C[C@@]2(COC(c3ccc(OCCCO)cc3)=N2)C1=O = -3.98

# z-score of C=CC[C@]1(C(=O)N2CCCCC2)N=C(c2ccc(OCCCO)cc2)O[C@H]1c1ccccc1 = -1.97

# z-score of C=CCOC(=O)[C@@H]1[C@H]2C(=O)O[C@H](c3ccccc3)[C@H](c3ccccc3)N2[C@H](c2ccc(OCCOC(=O)[C@@H]3C[C@@H]4C(=O)N[C@@H](CCCC[N+](C)(C)C)C(=O)N4[C@@H]3c3cccc(OCCO)c3)cc2)[C@@]12C(=O)Nc1ccc(I)cc12 = 1.02

----------
For each of the compounds below, state its composite z-score.
# Measurement protocol: binders of probe aFGF10 on microarray, primary screen, stem cell growth factor project, biochemical, small-molecule microarray, fluorescence 635/667 (AID 1071);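 note: score merges 667 nm spot intensity and signal to noise from triplicate slides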
# Condition label: higher = more signal
Give your answer as a number; write no unit.

# composite z-score of O=C(NCc1ccccc1)[C@@]1(CCS(=O)(=O)c2ccccc2)N=C(c2ccc(OCCCO)cc2)O[C@H]1c1ccccc1 = 0.488

# composite z-score of COCCCNC(=O)C1N=C(c2ccc(OCCCO)cc2)N(c2ccccc2)O1 (configuration not stated) = 0.848

# composite z-score of C=C(CCCC)C(=O)CC[C@H](OC(C)=O)c1cccc(OCCO)c1 = -0.177

# composite z-score of [N-]=[N+]=Nc1ccccc1C[C@]1(C(=O)NCC(O)CO)N=C(c2ccc(OCCCO)cc2)O[C@H]1c1ccccc1N=[N+]=[N-] (some centres not stated) = 0.33

# composite z-score of CC(C)C[C@@H]1NC(=O)[C@H]2C[C@@H](C(=O)NCCCCCCN(C)C)[C@@H](c3ccc(O)cc3)N2C1=O = 1.16

# composite z-score of C=CCNC(=O)[C@@H]1[C@H]2C(=O)O[C@H](c3ccccc3)[C@H](c3ccccc3)N2[C@H](c2ccc(OCCO)cc2)[C@@]12C(=O)Nc1ccc(C#Cc3ccc(OC)cc3)cc12 = 0.73

# composite z-score of COc1ccc(C(=O)Nc2cccc(CN3C(=O)[C@]4(O[C@H](CCO)[C@@H]([Si](C)(C)c5ccc(OC)cc5)[C@@H]4C)c4ccccc43)c2)cc1 = 0.285

----------
# Study target: Homeobox protein Hox-A13 (Mus musculus) (UniProt Q62424)
# Sequence (Q62424 whole entry, looked up): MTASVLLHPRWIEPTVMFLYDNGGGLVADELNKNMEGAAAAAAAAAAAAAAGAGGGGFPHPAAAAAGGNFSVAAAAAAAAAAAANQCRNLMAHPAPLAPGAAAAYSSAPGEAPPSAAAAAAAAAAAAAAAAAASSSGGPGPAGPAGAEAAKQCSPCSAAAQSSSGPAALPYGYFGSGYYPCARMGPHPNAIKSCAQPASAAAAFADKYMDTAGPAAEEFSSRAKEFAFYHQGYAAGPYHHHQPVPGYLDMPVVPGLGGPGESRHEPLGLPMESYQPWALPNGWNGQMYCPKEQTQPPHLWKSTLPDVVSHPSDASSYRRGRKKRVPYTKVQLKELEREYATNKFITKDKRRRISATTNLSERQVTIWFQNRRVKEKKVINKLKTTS
# Measurement protocol: inhibitors of HoxA13-DNA binding, primary screen, biochemical, fluorescence polarization, labeled oligonucleotide (AID 1185)
# Condition label: 15 min, higher = more signal, called active from +8 up or from −8 down
Assign criterion met whenever z-score does not fall below -4; assign criterion not met whenever it does.

**Q:** Reported z-score reaches at least -4 for Cc1ccc(S[C@]2(C(=O)NC3CC3)CC(=O)N(C3Cc4ccccc4C3)[C@@H]2c2ccc(CO)cc2)cc1 ?
**A:** criterion met

**Q:** Reported z-score reaches at least -4 for COCCOC(=O)N1C(=O)[C@@]2(c3ccccc31)[C@H](c1ccccc1OCCO)N1[C@H](c3ccccc3)[C@H](c3ccccc3)OC(=O)[C@H]1[C@@H]2C(=O)Nc1nc2ccccc2s1 ?
**A:** criterion met

**Q:** Reported z-score reaches at least -4 for O=C1c2ccccc2[C@@]2(Cc3ccccc3N(CC(F)(F)F)C2=O)[C@H](c2ccc(CO)cc2)N1Cc1ccccc1Cl ?
**A:** criterion met

**Q:** Reported z-score reaches at least -4 for COC(=O)[C@@]1(Cc2ccc(OC)cc2)[C@H]2c3cc(C(=O)N(C)C)n(Cc4cccc5ccccc45)c3C[C@H]2CN1C(=O)c1ccccc1 ?
**A:** criterion not met

**Q:** Reported z-score reaches at least -4 for COc1ccc(C(O)C2C=CC3C(=O)N(C)C(=O)C3N2N2CCCCC2)c2ccccc12 (configuration not stated) ?
**A:** criterion not met

**Q:** Reported z-score reaches at least -4 for CN(C)C(=O)[C@@]1(Cc2ccccc2)N=C(c2ccc(OCCCO)cc2)O[C@H]1c1ccccc1N=[N+]=[N-] ?
**A:** criterion not met

**Q:** Reported z-score reaches at least -4 for CCCC[C@H]1OB(O)C[C@H]2C1=C(COc1ccccc1)C[C@H]1C(=O)N(C)C(=O)[C@H]12 ?
**A:** criterion not met

----------
# Measurement protocol: HepG2 cell viability effects, profiling panel, calcein-AM fluorescence, 48 h, basal (AID 1164); note: test concentration not given here
# Condition label: higher = more signal
Endpoint name: z-score

# z-score of Cc1ccc(C(C)CC(O)C2C=CC3C(=O)N(c4ccccc4)C(=O)C3N2Nc2ccc([N+](=O)[O-])cc2)o1 (stereo not drawn) = 0.268

# z-score of CS(=O)(=O)CCOC(=O)C1=CC(CCCO)=CC(c2ccc(CN3CCCC3)cc2)N(Cc2cc3c(cc2Br)OCO3)C=C1C(=O)OCCS(C)(=O)=O (stereo not drawn) = -0.0078

# z-score of CC(=O)n1cc(C(O)C2C=CC3C(=O)N(C)C(=O)C3N2Nc2ccccc2)c2ccccc21 (stereo not drawn) = -0.804

# z-score of CC(C)C[C@@H]1NC(=O)[C@H]2C[C@@H](C(=O)NCCCCCCN)[C@@H](c3ccc(O)cc3)N2C1=O = -0.766

# z-score of CCCCN1CC=CC23O[C@@H]4/C=C\CCC(C)OC(=O)C4[C@H]2C(=O)N(CCCCCO)[C@@H]3C1=O (stereo partly drawn) = 0.478

# z-score of C=C(/C(=C/C[C@@H](OC(C)=O)c1ccc(OCCO)cc1)c1cnc2ccccc2c1)C(C)C = 1.25

# z-score of CCC(CC)C(O)C1C=CC2C(=O)N(C)C(=O)C2N1Nc1ccccc1 (stereo not drawn) = 0.597

# z-score of COC(=O)[C@@]1(Cc2ccccc2)[C@H]2c3cc(C(=O)N4CCCC4)n(Cc4cccc5ccccc45)c3C[C@H]2CN1C(=O)c1ccccc1 = -0.824
